Test system: Human alphaherpesvirus 3
test details: Antiviral activity against Varicella-zoster virus Ellen VR-1367 infected in African green monkey Vero cells after 3 days by MTT assay
Type: functional, organism-based
measurement conditions: Human alphaherpesvirus 3, Ellen VR-1367, Vero, 72 h
quantity kind: EC50 (µM)
# number only, unit µM dropped from output

Nc1nc2c(ncn2COC(CO)CO)c(=O)[nH]1 [GANCICLOVIR] :: 11.1

// switching to the query compound
Exercise: Item Nc1nc2c(ncn2COCCO)c(=O)[nH]1 [ACYCLOVIR] has what recorded EC50?
Key: 6.4

---

test details: Solubility of compound in double-deionized water after 3 days by LC-MS/MS analysis
Assay type: physicochemical
Measured solubility at 72 h accompanies every entry in the list below.
# number only, unit µg/mL dropped from output

Nc1nc2c(ncn2COC(CO)CO)c(=O)[nH]1 [GANCICLOVIR] :: 4960
Nc1nc2c(ncn2C[Se]CCO)c(=O)[nH]1 :: 1060

Exercise: Item Nc1nc2c(ncn2C[Se]C(CO)CO)c(=O)[nH]1 has what recorded solubility at 72 h?
Key: 2230

Exercise: Item Nc1nc2c(ncn2COCCO)c(=O)[nH]1 [ACYCLOVIR] has what recorded solubility at 72 h?
Key: 3920

---

Measured pEC50 accompanies every entry in the list below.
Test system: Human betaherpesvirus 5
test details: Antiviral activity against Human cytomegalovirus Davis VR-807 infected in […] after 3 days by MTT assay
Type: functional, organism-based
measurement conditions: Human betaherpesvirus 5, Davis VR-807, 72 h
Keep it numeric: pEC50 is minus log10 of the concentration in mol/L.

Nc1nc2c(ncn2C[Se]C(CO)CO)c(=O)[nH]1 :: 4.27
Nc1nc2c(ncn2COC(CO)CO)c(=O)[nH]1 [GANCICLOVIR] :: 5.67

// switching to the query molecule
Exercise: Item Nc1nc2c(ncn2COCCO)c(=O)[nH]1 [ACYCLOVIR] has what recorded pEC50?
Key: 4.72
